These entries and their values trace back to BindingDB's records for doi:10.1016/S0893-133X(01)00285-8.

subject-of-test: Kappa-type opioid receptor (Homo sapiens, UniProt P41145)
Sequence (P41145 whole entry): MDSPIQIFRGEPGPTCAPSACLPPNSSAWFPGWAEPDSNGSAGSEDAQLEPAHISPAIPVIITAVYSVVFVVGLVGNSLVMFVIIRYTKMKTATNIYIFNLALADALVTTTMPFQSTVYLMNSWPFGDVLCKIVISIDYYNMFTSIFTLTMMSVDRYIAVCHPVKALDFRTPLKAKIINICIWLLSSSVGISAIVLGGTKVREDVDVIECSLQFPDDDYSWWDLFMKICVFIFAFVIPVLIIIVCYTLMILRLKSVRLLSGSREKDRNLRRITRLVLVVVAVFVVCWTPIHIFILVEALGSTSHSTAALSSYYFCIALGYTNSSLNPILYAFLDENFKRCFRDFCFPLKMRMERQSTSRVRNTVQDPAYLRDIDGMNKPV
pKi: −log10 of the molar value.
measure-name: pKi

Reported pKi, molecule COc1cc(C(C)=O)ccc1OCCCN1CCC(c2noc3cc(F)ccc23)CC1 : ____
< 5.00

---

subject-of-test: Muscarinic acetylcholine receptor M1 (Homo sapiens, UniProt P11229)
Sequence (P11229 whole entry): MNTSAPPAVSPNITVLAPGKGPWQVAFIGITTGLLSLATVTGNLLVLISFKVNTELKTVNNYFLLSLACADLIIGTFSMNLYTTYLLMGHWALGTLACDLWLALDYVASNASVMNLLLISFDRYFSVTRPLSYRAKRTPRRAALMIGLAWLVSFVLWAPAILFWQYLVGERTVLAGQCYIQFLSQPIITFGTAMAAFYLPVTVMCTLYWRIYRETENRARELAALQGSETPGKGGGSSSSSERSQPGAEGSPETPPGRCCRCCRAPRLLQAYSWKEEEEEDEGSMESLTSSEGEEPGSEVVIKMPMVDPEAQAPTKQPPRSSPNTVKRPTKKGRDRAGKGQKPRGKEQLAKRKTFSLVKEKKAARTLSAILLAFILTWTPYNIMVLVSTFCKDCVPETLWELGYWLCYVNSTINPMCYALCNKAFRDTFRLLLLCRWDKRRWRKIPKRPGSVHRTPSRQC
measure-name: pKi
Would you please state pKi, meaning minus log10 of the concentration in mol/L, as a bare number?

What is its pKi for Muscarinic acetylcholine receptor M1 (Homo sapiens, UniProt P11229)? Entry: COc1cc(C(C)=O)ccc1OCCCN1CCC(c2noc3cc(F)ccc23)CC1
5.31

---

subject-of-test: Adenosine receptor A1 (Homo sapiens, UniProt P30542)
Sequence (P30542 whole entry): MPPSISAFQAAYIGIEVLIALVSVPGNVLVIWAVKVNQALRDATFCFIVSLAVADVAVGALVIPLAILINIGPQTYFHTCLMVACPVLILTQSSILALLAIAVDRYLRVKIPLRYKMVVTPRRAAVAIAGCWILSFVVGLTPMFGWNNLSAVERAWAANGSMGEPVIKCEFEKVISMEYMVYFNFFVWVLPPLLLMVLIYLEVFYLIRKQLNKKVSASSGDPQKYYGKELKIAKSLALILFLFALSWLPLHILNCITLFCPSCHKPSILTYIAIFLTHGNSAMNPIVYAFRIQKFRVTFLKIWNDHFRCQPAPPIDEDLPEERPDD
measure-name: Ki

What is its Ki for Adenosine receptor A1 (Homo sapiens, UniProt P30542)? Entry: COc1cc(C(C)=O)ccc1OCCCN1CCC(c2noc3cc(F)ccc23)CC1
> 10 µM

---

subject-of-test: Alpha-2A adrenergic receptor (Homo sapiens, UniProt P08913)
Sequence (P08913 whole entry): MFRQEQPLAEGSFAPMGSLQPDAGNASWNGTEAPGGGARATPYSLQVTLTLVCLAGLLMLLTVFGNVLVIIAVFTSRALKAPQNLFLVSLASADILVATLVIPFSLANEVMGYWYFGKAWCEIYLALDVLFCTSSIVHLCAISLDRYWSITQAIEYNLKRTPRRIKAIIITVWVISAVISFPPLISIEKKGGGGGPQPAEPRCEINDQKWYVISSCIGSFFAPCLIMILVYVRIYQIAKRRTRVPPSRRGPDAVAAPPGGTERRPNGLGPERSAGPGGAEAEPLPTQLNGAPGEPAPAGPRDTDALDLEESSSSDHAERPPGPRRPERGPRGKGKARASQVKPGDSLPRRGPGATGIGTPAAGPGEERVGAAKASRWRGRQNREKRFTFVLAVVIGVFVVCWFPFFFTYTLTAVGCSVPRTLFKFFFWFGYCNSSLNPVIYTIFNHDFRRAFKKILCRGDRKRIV
measure-name: Ki

What is its Ki for Alpha-2A adrenergic receptor (Homo sapiens, UniProt P08913)? Entry: COc1cc(C(C)=O)ccc1OCCCN1CCC(c2noc3cc(F)ccc23)CC1
162 nM

---

subject-of-test: Beta-2 adrenergic receptor (Homo sapiens)
Sequence (P07550 whole entry): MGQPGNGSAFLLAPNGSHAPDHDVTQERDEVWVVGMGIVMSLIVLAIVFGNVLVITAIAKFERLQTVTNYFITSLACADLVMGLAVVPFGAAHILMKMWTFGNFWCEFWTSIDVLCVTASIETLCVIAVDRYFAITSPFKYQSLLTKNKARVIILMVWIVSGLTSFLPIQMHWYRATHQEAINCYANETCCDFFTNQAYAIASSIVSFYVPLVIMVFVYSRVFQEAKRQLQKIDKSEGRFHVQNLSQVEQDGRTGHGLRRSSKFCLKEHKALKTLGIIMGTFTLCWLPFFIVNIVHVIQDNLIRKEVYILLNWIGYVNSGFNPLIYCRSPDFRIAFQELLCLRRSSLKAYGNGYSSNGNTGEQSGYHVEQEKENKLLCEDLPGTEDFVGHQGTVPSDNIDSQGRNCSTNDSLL
measure-name: Ki

Reported Ki, compound COc1cc(C(C)=O)ccc1OCCCN1CCC(c2noc3cc(F)ccc23)CC1 : ____
> 10 µM
